# Tested on: Salmonella typhimurium M-727
# measurement protocol: Sensitivity of strains: suppression of growth
# Type: cell-based
# stated conditions: Compound (1) 1.0%; antibiotics disc method
endpoint name: Suppression of Growth (+/−)

Sample answers from the record:
compound | assay system | Suppression of Growth (+/−)
CCC[C@@H]1C[C@@H](C(=O)N[C@@H]([C@H]2O[C@H](SC)[C@H](O)[C@@H](O)[C@H]2O)[C@@H](C)O)N(C)C1 [Antibiotic 6, lincomycin] | Salmonella typhimurium M-727 | −
C/C(=C\c1ccc2c(c1)OCO2)[N+](=O)[O-] [Compound (1)] | Salmonella typhimurium M-727 | +
O=C(N[C@H](CO)[C@H](O)c1ccc([N+](=O)[O-])cc1)C(Cl)Cl [Antibiotic 7, levomicethin] | Salmonella typhimurium M-727 | −
CC[C@H]1OC(=O)[C@H](C)[C@@H](O[C@H]2C[C@@](C)(OC)[C@@H](O)[C@H](C)O2)[C@H](C)[C@@H](O[C@@H]2O[C@H](C)C[C@H](N(C)C)[C@H]2O)[C@](C)(O)C[C@@H](C)C(=O)[C@H](C)[C@@H](O)[C@]1(C)O [Antibiotic 14, erythromycin] | Salmonella typhimurium M-727 | −

Moving on to the next compound.
QUERY: Suppression of Growth (+/−) lookup needed for CC1(C)S[C@@H]2[C@H](NC(=O)[C@H](N)c3ccccc3)C(=O)N2[C@H]1C(=O)O [Antibiotic 2, ampicillin] , thanks.
RESULT: −
